- Tested on: SK-OV-3
- protocol-description: CellTiter-Glo proliferation and viability assay
- Assay type: cell-based
- details: Homo sapiens, read-out: Rel IC50
parameter-measured: pIC50
Formally, pIC50 is defined as -log10 of the concentration c, with c in mol/L.

Would you mind telling me what pIC50 value was observed for CNc1ncc2cc(-c3cc(NC(=O)NCCC(C)(C)C)c(F)cc3C)c(C)nc2n1 ?
7.97

----------
- System: Ba/F3 c-Kit K642E
- protocol-description: Ba/F3 c-Kit anti-proliferation assay
- Format: cell-based
- details: Mus musculus, BaF3, Ba/F3 c-Kit K642E, SCF; read-out: Anti-proliferation activities (IC50)
parameter-measured: pIC50
Formally, pIC50 is defined as -log10 of the concentration c, with c in mol/L.

Requested read-out pIC50, target or system Ba/F3 c-Kit K642E, entry CNc1ncc2cc(-c3cc(NC(=O)NCCC(C)(C)C)c(F)cc3C)c(C)nc2n1 [Example 1]
7.33

----------
- Test system: HCC70
- protocol-description: CellTiter-Glo proliferation and viability assay
- Format: cell-based
- details: Homo sapiens, read-out: Abs IC50
pIC50: −log10 of the molar value.
parameter-measured: pIC50

Would you mind telling me what pIC50 value was observed for CNc1ncc2cc(-c3cc(NC(=O)NCCC(C)(C)C)c(F)cc3C)c(C)nc2n1 ?
< 7.70

----------
- Test system: NCI-H1155
- protocol-description: CellTiter-Glo proliferation and viability assay
- Type: cell-based
- details: Homo sapiens, read-out: Abs IC50
parameter-measured: IC50

Would you mind telling me what IC50 value was observed for CNc1ncc2cc(-c3cc(NC(=O)NCCC(C)(C)C)c(F)cc3C)c(C)nc2n1 ?
> 20 nM

----------
- Tested on: 786-0
- protocol-description: CellTiter-Glo proliferation and viability assay
- Assay type: cell-based
- details: Homo sapiens, read-out: Rel IC50
parameter-measured: IC50

Would you mind telling me what IC50 value was observed for CNc1ncc2cc(-c3cc(NC(=O)NCCC(C)(C)C)c(F)cc3C)c(C)nc2n1 ?
4.58 nM

----------
- Test system: HepG2
- protocol-description: CellTiter-Glo proliferation and viability assay
- Type: cell-based
- details: Homo sapiens, read-out: Rel IC50
parameter-measured: pIC50
Formally, pIC50 is defined as -log10 of the concentration c, with c in mol/L.

Would you mind telling me what pIC50 value was observed for CNc1ncc2cc(-c3cc(NC(=O)NCCC(C)(C)C)c(F)cc3C)c(C)nc2n1 ?
10.52

----------
- System: Ba/F3 c-Kit L576P
- protocol-description: Ba/F3 c-Kit anti-proliferation assay
- Assay type: cell-based
- details: Mus musculus, BaF3, Ba/F3 c-Kit L576P, IL-3; read-out: Anti-proliferation activities (IC50)
parameter-measured: pIC50
Formally, pIC50 is defined as -log10 of the concentration c, with c in mol/L.

Would you mind telling me what pIC50 value was observed for CNc1ncc2cc(-c3cc(NC(=O)NCCC(C)(C)C)c(F)cc3C)c(C)nc2n1 ?
5.68

----------
- System: KATOIII
- protocol-description: CellTiter-Glo proliferation and viability assay
- Type: cell-based
- details: Homo sapiens, KATO III, read-out: Rel IC50
parameter-measured: pIC50
Formally, pIC50 is defined as -log10 of the concentration c, with c in mol/L.

Would you mind telling me what pIC50 value was observed for CNc1ncc2cc(-c3cc(NC(=O)NCCC(C)(C)C)c(F)cc3C)c(C)nc2n1 [Example 1] ?
9.48
